Assay System: ERα protein (HiBiT-tagged) in ESR1_HiBiT KI MCF7 cells (Homo sapiens)
Sequence (P03372 1-595): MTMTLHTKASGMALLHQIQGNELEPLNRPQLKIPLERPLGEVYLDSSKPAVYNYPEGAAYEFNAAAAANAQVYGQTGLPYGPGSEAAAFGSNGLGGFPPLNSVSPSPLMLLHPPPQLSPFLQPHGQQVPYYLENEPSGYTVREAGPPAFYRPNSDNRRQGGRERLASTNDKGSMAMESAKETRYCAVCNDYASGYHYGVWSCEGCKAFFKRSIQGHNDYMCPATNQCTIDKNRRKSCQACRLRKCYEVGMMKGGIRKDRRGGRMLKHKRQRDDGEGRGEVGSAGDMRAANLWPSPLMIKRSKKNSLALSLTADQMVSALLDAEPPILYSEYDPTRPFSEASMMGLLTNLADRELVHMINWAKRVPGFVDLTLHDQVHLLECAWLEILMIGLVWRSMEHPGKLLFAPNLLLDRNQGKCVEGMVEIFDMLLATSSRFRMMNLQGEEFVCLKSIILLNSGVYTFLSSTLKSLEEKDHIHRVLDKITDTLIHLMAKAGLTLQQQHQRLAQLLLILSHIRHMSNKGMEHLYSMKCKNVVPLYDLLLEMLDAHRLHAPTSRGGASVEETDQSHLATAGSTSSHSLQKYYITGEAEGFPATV
Experiment: Nano Glo HiBiT Lytic Degradation Assay
Assay type: cell-based
Settings: 6 hours with compound, 14-point dose response 1:3, bell-shape curve fit, half-maximal effect of first Hill model, read-out: MCF7 ESR1 HiBiT - (DC50)
Observable: DC50

Example entries and their recorded answers appear below.
DC50 reported for this compound O=C1CC[C@H](N2Cc3cc(N4CCN(CC5CCN(c6ccc([C@H]7c8ccc(O)cc8CC[C@H]7C7CCCCCC7)cc6)CC5)CC4)ccc3C2=O)C(=O)N1 : ≥ 10 µM

DC50 reported for this compound Cc1cc(N2CCC(CN3CCN(c4ccc5c(c4)CN([C@H]4CCC(=O)NC4=O)C5=O)CC3)CC2)cc(F)c1[C@H]1c2ccc(O)cc2CC[C@H]1C1CCCCC1 (single isomer, unassigned) : ≥ 10 µM

From here, focus on the item given below.
DC50 reported for this compound O=C1CC[C@H](N2Cc3cc(N4CCN(CCC5CCN(c6ccc([C@H]7c8ccc(O)cc8CC[C@H]7c7ccccc7)cc6)CC5)CC4)ccc3C2=O)C(=O)N1 : ≥ 10 µM

----------
Reported DC50 by item:
Assay System: ERα protein (HiBiT-tagged) in ESR1_HiBiT KI MCF7 cells (Homo sapiens, UniProt P03372)
Experiment: Nano Glo HiBiT Lytic Degradation Assay
Type: cell-based
Settings: 6 hours with compound, 14-point dose response 1:3, bell-shape curve fit, half-maximal effect of first Hill model, read-out: MCF7 ESR1 HiBiT - (DC50)

Example entries and their recorded answers appear below.
DC50 reported for this molecule O=C1CCC(c2ccc(N3CC[C@H]4[C@@H]3CCN4CC3CCN(c4ccc([C@@H]5c6ccc(O)cc6CC[C@@H]5c5ccccc5)cc4)CC3)cc2)C(=O)N1 (stereo partly drawn) : ≥ 10 µM

DC50 reported for this molecule O=C1CC[C@H](N2Cc3cc(N4CCC(CN5CCC(n6cc([C@@H]7c8ccc(O)cc8CC[C@@H]7c7ccccc7)cn6)CC5)CC4)ccc3C2=O)C(=O)N1 (single isomer, unassigned) : ≥ 10 µM

Next:
DC50 reported for this molecule O=C1CC[C@H](N2Cc3cc(N4CCN(C[C@H]5CCCN(c6ccc([C@H]7c8ccc(O)cc8CC[C@H]7c7ccccc7)cc6)C5)CC4)ccc3C2=O)C(=O)N1 (single isomer, unassigned) : ≥ 10 µM
